target-or-test-system: human P2X7 receptor (Homo sapiens, UniProt Q99572, R270H/Y155H)
measurement-protocol: Evaluation of human P2X7 receptor inhibitory activity (Yo-Pro uptake, BzATP stimulation, FLIPR TETRA)
Assay type: cell-based
condition-notes: antagonistic activity for the human P2X7 receptor; read-out: IC50
Attribute: IC50

# annotated cases, reported IC50 shown
[[record]]
compound_string = "Cc1cc2c(cc1Nc1nc(=O)c(F)cn1Cc1ccc(F)c(F)c1)CCO2"
outcome_measure = "IC50"
value_observed = "< 10 nM"

[[record]]
compound_string = "CCOc1ccc(Nc2nc(=O)c(OC)cn2Cc2ccc(F)c(Cl)c2)c(C)c1"
outcome_measure = "IC50"
value_observed = "< 10 nM"

[[record]]
compound_string = "COc1cn(Cc2ccc(F)c(F)c2)c(Nc2cccc(SC)c2C)nc1=O"
outcome_measure = "IC50"
value_observed = "< 10 nM"

[[record]]
compound_string = "O=c1nc(Nc2cccc3c2CCN3)n(Cc2cc(F)c(F)c(F)c2)cc1F"
outcome_measure = "IC50"
value_observed = "10 to 100 nM"


In: Reported IC50, compound `COc1cn(Cc2cc(F)c(F)c(F)c2)c(Nc2cc3c(cc2C)OCCC3)nc1=O` : ____
Out: 10 to 100 nM

In: Given `Cc1ccc(CO)cc1Nc1nc(=O)c(F)cn1Cc1cc(F)cc(F)c1` , state its recorded IC50.
Out: < 10 nM

In: Can you share its IC50? I mean this compound: `CCOc1ccc(Nc2nc(=O)c(OC)cn2Cc2cc(F)cc(F)c2)c(C)c1`
Out: 10 to 100 nM

In: Look up IC50: `COc1cc(C)c(Nc2nc(=O)c(C#N)cn2Cc2cc(F)c(F)c(F)c2)cc1C`
Out: < 10 nM

Hello, the source for this data is patent US10774051B2, in case you need it.
